B1: BTBD10 (parent)
chain: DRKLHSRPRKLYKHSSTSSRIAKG

Variants of: B1
Test: protein stability index of a GFP-peptide fusion (GPS, HEK-293T) (PSI 1-6); higher = more stable;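 further: lentivirally expressed fusions sorted by FACS into six bins by GFP to DsRed ratio, PSI derived from sequencing read proportions per bin multiplied by bin number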
Details: c terminus: a fixed tail appended
Assignment: determine reported protein stability index for the given variants.
Just the number, please, no unit attached.

Ask | Item H5K has what recorded protein stability index?
Reply | 4.09

Ask | Name the reported protein stability index value associated with the variant L4F
Reply | 3.92

Ask | Look up protein stability index for this variant: L11A
Reply | 4.08

Ask | Endpoint output: protein stability index of K10S . Value?
Reply | 4.09

Ask | Tell me the measured protein stability index of S15E , please.
Reply | 4.06

Ask | I'd like to know its protein stability index. The variant in question is R9Q
Reply | 4.11

Ask | Find the recorded protein stability index belonging to S15V and report it.
Reply | 3.88

Ask | Requested read-out: protein stability index. Entry: K10D
Reply | 4.21

Ask | May I ask what protein stability index has been recorded for P8A ?
Reply | 4.2

Ask | // query protein stability index value for entry S19Q
Reply | 3.63

Ask | Param item = A22G ; retrieve measured protein stability index.
Reply | 3.91

Ask | Give its protein stability index value. Item: G24E
Reply | 4.5

Ask | Returns the measured protein stability index for the input variant. Input: L11G
Reply | 4.16

Ask | Dear colleague, I am looking for the recorded protein stability index of the following variant: I21L
Reply | 3.96

Ask | Could you share which protein stability index value was measured for R9W ?
Reply | 3.51

Ask | Consider the variant S19H and give its measured protein stability index.
Reply | 3.5

Ask | Please look up its protein stability index: H14T
Reply | 4.19

Ask | Report protein stability index for R9E please.
Reply | 4.19

Ask | Suppose we examine the variant R7K ; what protein stability index value has been reported?
Reply | 3.33

Ask | Form field: reported protein stability index of L11Y
Reply | 3.7

Ask | Value lookup for protein stability index; key = S6R
Reply | 3.39
